target: Amine oxidase [flavin-containing] B (Homo sapiens); assay: Inhibition of recombinant human MAO-B expressed in baculovirus infected BTI insect cells at 10 uM using kynuramine as substrate measured after 30 mins by fluorescence based assay relative to control; details: 0.5 h
Can you tell me inhibition at 10 µM for the items I'm about to list?
Hi! Could you send only the number? It should be in %, unit omitted.

inhibition at 10 µM recorded for this compound, "COc1cc2c(cc1OC)/C(=C\CCCN1CCCCC1)OC2=O" , is 38.8

inhibition at 10 µM recorded for this compound, "CCN(CCC/C=C1/OC(=O)c2cc(OC)c(OC)cc21)Cc1ccccc1N(C)C" , is 2.1

inhibition at 10 µM recorded for this compound, "CCN(CCCCC/C=C1/OC(=O)c2cc(OC)c(OC)cc21)Cc1ccccc1N(C)C" , is 7.3

inhibition at 10 µM recorded for this compound, "CCN(CCC/C=C1\OC(=O)c2cc(OC)c(OC)cc21)Cc1ccccc1" , is 13.8

inhibition at 10 µM recorded for this compound, COc1cc2c(cc1OC)C(CCCCN(C)Cc1ccccc1)OC2=O (stereo not given) , is 6.4

inhibition at 10 µM recorded for this compound, "CCN(CCC/C=C1\OC(=O)c2cc(OC)c(OC)cc21)Cc1ccccc1OC" , is 12

inhibition at 10 µM recorded for this compound, CCN(CCCCC1OC(=O)c2cc(OC)c(OC)cc21)Cc1ccccc1OC (stereo not given) , is 10.4

inhibition at 10 µM recorded for this compound, COc1cc2c(cc1OC)C(CCCCCCN(C)Cc1ccccc1)OC2=O (stereo not given) , is 16.3

inhibition at 10 µM recorded for this compound, "CCN(CCC/C=C1/OC(=O)c2cc(OC)c(OC)cc21)Cc1ccc(N(C)C)cc1" , is 17

inhibition at 10 µM recorded for this compound, COc1cc2c(cc1OC)C(CCCCN1CCCCC1)OC2=O (stereo not given) , is 34.7

---

Acetylcholinesterase (Electrophorus electricus, UniProt O42275) log10(IC50) data
Sequence (O42275 whole entry): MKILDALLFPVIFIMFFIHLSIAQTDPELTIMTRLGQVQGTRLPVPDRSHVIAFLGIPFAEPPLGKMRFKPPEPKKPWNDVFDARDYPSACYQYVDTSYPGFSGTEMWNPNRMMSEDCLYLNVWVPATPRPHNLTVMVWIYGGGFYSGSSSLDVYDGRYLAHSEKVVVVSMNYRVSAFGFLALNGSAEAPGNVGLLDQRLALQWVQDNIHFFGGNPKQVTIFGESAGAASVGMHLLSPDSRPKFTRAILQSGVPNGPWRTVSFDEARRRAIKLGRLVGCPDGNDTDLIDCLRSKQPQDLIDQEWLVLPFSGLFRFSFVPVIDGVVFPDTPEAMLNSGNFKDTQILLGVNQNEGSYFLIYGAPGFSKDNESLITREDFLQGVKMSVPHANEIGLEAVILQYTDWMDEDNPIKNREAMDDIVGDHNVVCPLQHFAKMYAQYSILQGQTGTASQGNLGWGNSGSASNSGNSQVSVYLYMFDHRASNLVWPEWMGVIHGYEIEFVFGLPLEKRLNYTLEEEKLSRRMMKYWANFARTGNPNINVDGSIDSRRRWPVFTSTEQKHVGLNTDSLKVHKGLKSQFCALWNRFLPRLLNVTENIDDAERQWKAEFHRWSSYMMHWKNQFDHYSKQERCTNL
# values: log10(IC50), units nM

The molecule COc1cc2c(cc1OC)C(CCCCCCN(C)Cc1ccccc1)OC2=O (stereo not given) on Acetylcholinesterase (Electrophorus electricus, UniProt O42275): log10(IC50) was 2.20

The molecule "CCN(CCC/C=C1\OC(=O)c2cc(OC)c(OC)cc21)Cc1ccc(N(C)C)cc1" on Acetylcholinesterase (Electrophorus electricus, UniProt O42275): log10(IC50) was 4.37

The molecule "CCN(CCC/C=C1\OC(=O)c2cc(OC)c(OC)cc21)Cc1ccccc1OC" on Acetylcholinesterase (Electrophorus electricus, UniProt O42275): log10(IC50) was 3.19

The molecule "COc1cc2c(cc1OC)/C(=C/CCCN(C)Cc1ccccc1)OC2=O" on Acetylcholinesterase (Electrophorus electricus, UniProt O42275): log10(IC50) was 2.53

The molecule "COc1cc2c(cc1OC)/C(=C\CCCN1CCCCC1)OC2=O" on Acetylcholinesterase (Electrophorus electricus, UniProt O42275): log10(IC50) was 2.64

The molecule "COc1ccccc1CN(C)CCC/C=C1\OC(=O)c2cc(OC)c(OC)cc21" on Acetylcholinesterase (Electrophorus electricus, UniProt O42275): log10(IC50) was 3.21

The molecule CCN(CCCCC1OC(=O)c2cc(OC)c(OC)cc21)Cc1ccccc1N(C)C (stereo not given) on Acetylcholinesterase (Electrophorus electricus, UniProt O42275): log10(IC50) was 2.41

The molecule CCN(CCCCCCC1OC(=O)c2cc(OC)c(OC)cc21)Cc1ccccc1N(C)C (stereo not given) on Acetylcholinesterase (Electrophorus electricus, UniProt O42275): log10(IC50) was 3.09

The molecule "COc1cc2c(cc1OC)/C(=C/CCCN1CCCCC1)OC2=O" on Acetylcholinesterase (Electrophorus electricus, UniProt O42275): log10(IC50) was 3.66

The molecule "COc1ccccc1CN(C)CCC/C=C1/OC(=O)c2cc(OC)c(OC)cc21" on Acetylcholinesterase (Electrophorus electricus, UniProt O42275): log10(IC50) was 2.61

---

Acetylcholinesterase (Electrophorus electricus) pIC50 data
Units for pIC50: none; it is -log10 of a concentration expressed in mol/L.

pIC50 recorded for this molecule, "CCN(CC)CCC/C=C1/OC(=O)c2cc(OC)c(OC)cc21" , is 5.20

pIC50 recorded for this molecule, COc1ccccc1CN(C)CCCCC1OC(=O)c2cc(OC)c(OC)cc21 (configuration not stated) , is 6.31

pIC50 recorded for this molecule, "COc1cc2c(cc1OC)/C(=C\CCCN(C)Cc1ccccc1)OC2=O" , is 6.19

pIC50 recorded for this molecule, "CCN(CCC/C=C1/OC(=O)c2cc(OC)c(OC)cc21)Cc1ccc(N(C)C)cc1" , is 4.86

pIC50 recorded for this molecule, COc1cc2c(cc1OC)C(CCCCN1CCCCC1)OC2=O (configuration not stated) , is 4.80

pIC50 recorded for this molecule, "CCN(CCC/C=C1/OC(=O)c2cc(OC)c(OC)cc21)Cc1ccccc1" , is 5.85

pIC50 recorded for this molecule, "CCN(CCC/C=C1/OC(=O)c2cc(OC)c(OC)cc21)Cc1ccccc1OC" , is 6.10

pIC50 recorded for this molecule, CCN(CCCCC1OC(=O)c2cc(OC)c(OC)cc21)Cc1ccccc1OC (configuration not stated) , is 6.43

pIC50 recorded for this molecule, CCN(CC)CCCCC1OC(=O)c2cc(OC)c(OC)cc21 (configuration not stated) , is 4.83

pIC50 recorded for this molecule, "CCN(CCC/C=C1\OC(=O)c2cc(OC)c(OC)cc21)Cc1ccccc1N(C)C" , is 6.68

pIC50 recorded for this molecule, CCN(CCCCC1OC(=O)c2cc(OC)c(OC)cc21)Cc1ccc(N(C)C)cc1 (configuration not stated) , is 4.60

pIC50 recorded for this molecule, "CCN(CCC/C=C1/OC(=O)c2cc(OC)c(OC)cc21)Cc1ccccc1N(C)C" , is 6.46

pIC50 recorded for this molecule, CCN(CCCCC1OC(=O)c2cc(OC)c(OC)cc21)Cc1ccccc1 (configuration not stated) , is 6.24

pIC50 recorded for this molecule, COc1cc2c(cc1OC)C(CCCCN(C)Cc1ccccc1)OC2=O (configuration not stated) , is 6.46

pIC50 recorded for this molecule, "COc1cc2c(cc1OC)/C(=C\CCCCCN(C)Cc1ccccc1)OC2=O" , is 8.32

pIC50 recorded for this molecule, "CCN(CCC/C=C1\OC(=O)c2cc(OC)c(OC)cc21)Cc1ccccc1" , is 6.44

pIC50 recorded for this molecule, "CCN(CCCCC/C=C1/OC(=O)c2cc(OC)c(OC)cc21)Cc1ccccc1N(C)C" , is 6.05

---

target: Amine oxidase [flavin-containing] B (Homo sapiens, UniProt P27338); test: Inhibition of recombinant human MAO-B expressed in baculovirus infected BTI insect cells at 10 uM using kynuramine as substrate measured after 30 mins by fluorescence based assay relative to control; conditions: 0.5 h
Sequence (P27338 whole entry): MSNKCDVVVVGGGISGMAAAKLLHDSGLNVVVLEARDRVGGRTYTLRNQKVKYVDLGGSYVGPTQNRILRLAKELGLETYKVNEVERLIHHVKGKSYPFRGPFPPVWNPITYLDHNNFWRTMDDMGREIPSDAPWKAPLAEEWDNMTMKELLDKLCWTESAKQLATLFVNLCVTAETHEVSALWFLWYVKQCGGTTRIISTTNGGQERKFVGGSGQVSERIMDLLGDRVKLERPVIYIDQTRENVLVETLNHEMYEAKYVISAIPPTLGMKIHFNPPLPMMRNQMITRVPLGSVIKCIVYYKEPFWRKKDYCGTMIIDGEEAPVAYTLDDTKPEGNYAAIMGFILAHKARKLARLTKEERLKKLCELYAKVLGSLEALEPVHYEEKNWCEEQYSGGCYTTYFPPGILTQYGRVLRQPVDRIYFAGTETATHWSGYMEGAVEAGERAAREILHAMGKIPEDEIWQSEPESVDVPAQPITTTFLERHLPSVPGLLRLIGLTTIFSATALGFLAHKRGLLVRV
Can you tell me inhibition at 10 µM for the items I'm about to list?
Hi! Could you send only the number? It should be in %, unit omitted.

inhibition at 10 µM recorded for this compound, CCN(CCCCC1OC(=O)c2cc(OC)c(OC)cc21)Cc1ccccc1 (stereo not given) , is 5.51

inhibition at 10 µM recorded for this compound, "CCN(CCC/C=C1/OC(=O)c2cc(OC)c(OC)cc21)Cc1ccccc1OC" , is 4.8

inhibition at 10 µM recorded for this compound, COc1ccccc1CN(C)CCCCC1OC(=O)c2cc(OC)c(OC)cc21 (stereo not given) , is 5.7

inhibition at 10 µM recorded for this compound, "COc1cc2c(cc1OC)/C(=C\CCCCCN(C)Cc1ccccc1)OC2=O" , is 5.66

inhibition at 10 µM recorded for this compound, CCN(CCCCCCC1OC(=O)c2cc(OC)c(OC)cc21)Cc1ccccc1N(C)C (stereo not given) , is 13.4

inhibition at 10 µM recorded for this compound, "COc1ccccc1CN(C)CCC/C=C1\OC(=O)c2cc(OC)c(OC)cc21" , is 10.3

inhibition at 10 µM recorded for this compound, CCN(CCCCC1OC(=O)c2cc(OC)c(OC)cc21)Cc1ccc(N(C)C)cc1 (stereo not given) , is 9.47

inhibition at 10 µM recorded for this compound, "CCN(CCC/C=C1\OC(=O)c2cc(OC)c(OC)cc21)Cc1ccccc1N(C)C" , is 9.9

inhibition at 10 µM recorded for this compound, CCN(CC)CCCCC1OC(=O)c2cc(OC)c(OC)cc21 (stereo not given) , is 21.5

inhibition at 10 µM recorded for this compound, "COc1cc2c(cc1OC)/C(=C/CCCN(C)Cc1ccccc1)OC2=O" , is 11.9
